For each record, write down the corresponding pEC50.
System: T. b. brucei BSF trypomastigotes
Experiment: Antitrypanosomal evaluation on T. b. brucei BSF trypomastigotes (Alamar Blue)
Assay type: cell-based
Details: Trypanosoma brucei, trypomastigote blood stream form
Numbers only, as −log10 of the molar value.

# example entries with known answers
Compound	pEC50
CSc1ccc(OCc2ncc([N+](=O)[O-])n2C)cc1 [Fexinidazole, reference compound]	5.85
O=[N+]([O-])c1c(CS(=O)(=O)c2ccc(O)cc2)nc2c(Sc3ccc(Cl)cc3)cc(Cl)cn12	6.11
Cc1ccc(C(=O)Nc2ccc(S(=O)(=O)O)c3cc(S(=O)(=O)O)cc(S(=O)(=O)O)c23)cc1NC(=O)c1cccc(NC(=O)Nc2cccc(C(=O)Nc3cc(C(=O)Nc4ccc(S(=O)(=O)O)c5cc(S(=O)(=O)O)cc(S(=O)(=O)O)c45)ccc3C)c2)c1 [Suramin, reference compound]	7.10
O=[N+]([O-])c1c(CS(=O)(=O)c2ccc(O)cc2)nc2c(Br)cc(Cl)cn12	6.40
O=[N+]([O-])c1c(CS(=O)(=O)c2ccc(F)cc2)nc2c(Sc3ccc(Cl)cc3)cc(Cl)cn12	6.24

Next item in the queue.
Provide pEC50 value for the following compound: O=[N+]([O-])c1c(CS(=O)(=O)c2ccc(C(F)(F)F)cc2)nc2c(Sc3ccc(Cl)cc3)cc(Cl)cn12
6.05

---

Experiment: Cytotoxicity on THP-1 cell line (MTT)
Assay type: cell-based
Conditions: human, THP-1 cells, THP1 cell line
Measured Attribute: CC50 at 72 h

Molecule	CC50 at 72 h
O=[N+]([O-])c1c(CS(=O)(=O)CCC(F)(F)F)nc2c(-c3ccncc3)cc(Cl)cn12	> 100 µM
O=[N+]([O-])c1c(CS(=O)(=O)c2ccccc2)nc2c(Sc3ccc(Cl)cc3)cc(Cl)cn12 [Hit B, reference compound]	> 62.5 µM
CC(C)S(=O)(=O)Cc1nc2c(Sc3ccc(Cl)cc3)cc(Cl)cn2c1[N+](=O)[O-]	> 31.2 µM

Respectfully, I request CC50 at 72 h for each entry included below.
1. COc1ccc(S(=O)(=O)Cc2nc3c(Sc4ccc(Cl)cc4)cc(Cl)cn3c2[N+](=O)[O-])cc1
2. O=[N+]([O-])c1c(CS(=O)(=O)c2ccc(F)cc2)nc2c(Cl)cc(Cl)cn12
3. O=[N+]([O-])c1c(CS(=O)(=O)c2ccc(C(F)(F)F)cc2)nc2c(Sc3ccc(Cl)cc3)cc(Cl)cn12
4. CCCCCCCCCCCCCCCCOP(=O)([O-])OCC[N+](C)(C)C [Miltefosine, reference compound]
5. O=[N+]([O-])c1c(CS(=O)(=O)c2ccc(C(F)(F)F)cc2)nc2c(Cl)cc(Cl)cn12
6. O=[N+]([O-])c1c(CS(=O)(=O)CCC(F)(F)F)nc2c(S(=O)(=O)c3ccc(Cl)cc3)cc(Cl)cn12
7. O=[N+]([O-])c1c(CS(=O)(=O)C2CC2)nc2c(Br)cc(Cl)cn12
8. C[C@@H]1[C@H](O)[C@@H](C)/C=C/C=C/C=C/C=C/C=C/C=C/C=C/[C@H](O[C@@H]2O[C@H](C)[C@@H](O)[C@H](N)[C@@H]2O)C[C@@H]2O[C@](O)(C[C@@H](O)C[C@@H](O)[C@H](O)CC[C@@H](O)C[C@@H](O)CC(=O)O[C@H]1C)C[C@H](O)[C@H]2C(=O)O [Amphotericin B, reference compound]

1: > 50 µM; 2: 22.5 µM; 3: > 50 µM; 4: 28.1 µM; 5: 23.2 µM; 6: > 100 µM; 7: > 50 µM; 8: 12.1 µM

Respectfully, I request CC50 at 72 h for each entry included below.
1. O=[N+]([O-])c1c(CS(=O)(=O)c2ccc(F)cc2)nc2c(Sc3ccc(Cl)cc3)cc(Cl)cn12
2. O=[N+]([O-])c1c(CS(=O)(=O)c2ccc(OC(F)(F)F)cc2)nc2c(Br)cc(Cl)cn12

1. > 100 µM
2. > 100 µM

Respectfully, I request CC50 at 72 h for each entry included below.
1. COc1ccc(S(=O)(=O)Cc2nc3c(Br)cc(Cl)cn3c2[N+](=O)[O-])cc1
2. O=[N+]([O-])c1c(CS(=O)(=O)C2CC2)nc2c(Sc3ccc(Cl)cc3)cc(Cl)cn12
3. CC(C)S(=O)(=O)Cc1nc2c(Br)cc(Cl)cn2c1[N+](=O)[O-]

1. > 100 µM
2. > 62.5 µM
3. > 100 µM

---

Test: Thermodynamic solubility at pH 7.4 (miniaturized shake-flask)
Assay type: physicochemical
Conditions: phosphate buffer (PBS), aqueous buffer, kinetic from dmso stock, pH 7.4, PBS, 23 °C
For each record, write down the corresponding solubility thermodynamic at 24 h.

>>> df
                            chemical_string  recorded_measurement
0  O=[N+]([O-])c1c(CS(=O)(=O)c2ccc(Cl)cc2)nc2c(Sc3ccc(Cl)cc3)cc(Cl)cn12                < 2 µM

Respectfully, I request solubility thermodynamic at 24 h for each entry included below.
1. O=[N+]([O-])c1c(CS(=O)(=O)c2ccc(F)cc2)nc2c(Sc3ccc(Cl)cc3)cc(Cl)cn12
2. COc1ccc(S(=O)(=O)Cc2nc3c(Sc4ccc(Cl)cc4)cc(Cl)cn3c2[N+](=O)[O-])cc1

1. < 2 µM
2. < 2 µM

---

Experiment: Cytotoxicity on THP-1 cell line (MTT)
Format: cell-based
Conditions: human, THP-1 cells, THP1 cell line
Measured Attribute: CC50 at 72 h

# example entries with known answers
                            chemical_string  measured_attribute  recorded_measurement
0  O=[N+]([O-])c1c(CS(=O)(=O)c2ccc(F)cc2)nc2c(Br)cc(Cl)cn12        CC50 at 72 h               33.3 µM
1  O=[N+]([O-])c1c(CS(=O)(=O)c2ccc(O)cc2)nc2c(Br)cc(Cl)cn12        CC50 at 72 h              > 100 µM

Respectfully, I request CC50 at 72 h for each entry included below.
1. O=[N+]([O-])c1c(CS(=O)(=O)c2ccc(OC(F)(F)F)cc2)nc2c(Sc3ccc(Cl)cc3)cc(Cl)cn12
2. O=[N+]([O-])c1c(CS(=O)(=O)c2ccc(Cl)cc2)nc2c(Br)cc(Cl)cn12

1: > 100 µM; 2: > 31.2 µM
